- TEST DETAILS: yeast display, Sf9 membrane polyspecificity reagent, FACS + sequencing; frameworks hold sequencing errors
QUANTITY NAME: polyreactivity (PSR sort gate)

Problem: Which value of polyreactivity (PSR sort gate) has been reported for QVQLVESGGGLVQAGGSLRLSCAASGIIFSPYAMGLYRQAPGKERELVAAISYSGGSTYYADSVKGRFTISRDNAKNTVYLQMNSLKPEDTAVYYCAVVYSYYLAVLGYCDYDYWGQGTQVTVSS in the records?
Result: low polyreactivity

Problem: Could you do the same for QVQLVESGGALVQAGGSLRLSCAASGSIFGEYTMGWYRQAPGKEWELVAAIRSGGDTYYADSVKGRFTLSRDKAKNTVYLQMNSLKPEDTAVYYCNAYWVRHYIMDYWGQGTQVTVSS , please?
Result: low polyreactivity

Problem: Could you do the same for QVQLVESGGGLVQAGGSLRLSCAASGSIFGVYDMGWYRQAPGKEREVVAVINSNGGSTYYADSVKGRFTISRDNAKNTVYLQMNSLKPEDTAVYYCAADYQSYVYIGYGYWGQGTQVTVSS , please?
Result: low polyreactivity

Problem: Could you do the same for QVQLVESGGGLVQAGGSLRLSCAASGRIFRAYAMGWYRQAPGKEREFVAAITWSGGSTYYADSVKGRFTISRDNAKNTVYLQMNSLKPEDTAVYYCAARGYSYRRRSQQFDYWGQGTQVTVSS , please?
Result: high polyreactivity

We now examine a further sequence.
Problem: Which value of polyreactivity (PSR sort gate) has been reported for QVQLVESGGGLVQAGGSLRLSCAASGSTFGRYAMGWYRQAPGKERELVAAITSGSSTNYADSVKGRFTISRDNAKNTVYLPMNSLKPEDTAVYYCAAPKSRQSTYYYWGQGTQVTVSS in the records?
Result: high polyreactivity
